These entries and their values trace back to paper PMC10287566.

# method.summary: SAD study, plasma pharmacokinetics
# Format: in vivo
# applied.conditions: human, oral, SAD, 2 mg, evaluated 0-144 h, underestimated, read-out: t½, min-max
metric.name: half-life

stdin: Specify reported half-life for the compound shown: COc1ccc(CO[C@H]2CC[C@@]3(C)C(=CC[C@H]4[C@@H]5CC[C@H](C(C)=O)[C@@]5(C)CC[C@@H]43)C2)cc1
stdout: 84.4 to 180 h

====

# method.summary: Plasma and brain pharmacokinetics/toxicokinetics in rats
# Assay type: in vivo
# applied.conditions: both sexes, Sprague Dawley SPF, rat, plasma, po, 36 mg/kg, rats po 36 mg/kg single, 28-day tox study
metric.name: Cmax (ng/mL)
Numbers only, in ng/mL.

stdin: Specify reported Cmax for the compound shown: COc1ccc(CO[C@H]2CC[C@@]3(C)C(=CC[C@H]4[C@@H]5CC[C@H](C(C)=O)[C@@]5(C)CC[C@@H]43)C2)cc1
stdout: 2060

====

# method.summary: Plasma pharmacokinetics/toxicokinetics in dogs (oral and i.v.)
# Assay type: in vivo
# applied.conditions: both sexes, Beagle, dog, po, 0.7 mg/kg, dogs po 0.7 mg/kg single
metric.name: Cmax (ng/mL)
One number for each entry, in ng/mL.

stdin: Specify reported Cmax for the compound shown: COc1ccc(CO[C@H]2CC[C@@]3(C)C(=CC[C@H]4[C@@H]5CC[C@H](C(C)=O)[C@@]5(C)CC[C@@H]43)C2)cc1 [AEF0117, 3β-(4-methoxybenzyloxy)pregn-5-en-20-one]
stdout: 138

====

# method.summary: Plasma and brain pharmacokinetics/toxicokinetics in rats
# Format: in vivo
# applied.conditions: both sexes, Sprague Dawley, rat, plasma, po, 2 mg/kg, rats po 2 mg/kg single, 91-day tox study
metric.name: Cmax (ng/mL)
One number for each entry, in ng/mL.

stdin: Specify reported Cmax for the compound shown: COc1ccc(CO[C@H]2CC[C@@]3(C)C(=CC[C@H]4[C@@H]5CC[C@H](C(C)=O)[C@@]5(C)CC[C@@H]43)C2)cc1 [AEF0117, 3β-(4-methoxybenzyloxy)pregn-5-en-20-one]
stdout: 86.3

====

# method.summary: SAD study, plasma pharmacokinetics
# Format: in vivo
# applied.conditions: human, oral, SAD Day 1, 0.6 mg, read-out: tmax, median (range)
metric.name: Tmax (h)
Answers are plain numbers, in h.

stdin: Specify reported Tmax for the molecule shown: COc1ccc(CO[C@H]2CC[C@@]3(C)C(=CC[C@H]4[C@@H]5CC[C@H](C(C)=O)[C@@]5(C)CC[C@@H]43)C2)cc1 [AEF0117, 3β-(4-methoxybenzyloxy)pregn-5-en-20-one]
stdout: 2.5

====

# method.summary: SAD study, plasma pharmacokinetics
# Format: in vivo
# applied.conditions: human, oral, healthy volunteers, SAD and MAD, read-out: median tmax
metric.name: Tmax

stdin: Specify reported Tmax for the compound shown: COc1ccc(CO[C@H]2CC[C@@]3(C)C(=CC[C@H]4[C@@H]5CC[C@H](C(C)=O)[C@@]5(C)CC[C@@H]43)C2)cc1
stdout: 2 to 3 h

====

# method.summary: Plasma and brain pharmacokinetics of oral AEF0117 in mice
# Format: in vivo
# applied.conditions: both sexes, CD-1 Swiss, mouse, brain/plasma, oral, 0.3 mg/kg; read-out: AUClast brain/plasma ratio
metric.name: Kp
Answers are plain numbers.

stdin: Specify reported Kp for the molecule shown: COc1ccc(CO[C@H]2CC[C@@]3(C)C(=CC[C@H]4[C@@H]5CC[C@H](C(C)=O)[C@@]5(C)CC[C@@H]43)C2)cc1 [AEF0117, 3β-(4-methoxybenzyloxy)pregn-5-en-20-one]
stdout: 7.3
